- experimental-protocol: Selectivity index, ratio of CC50 for cytotoxicity against mouse BMDM cells assessed as cell viability to EC50 for antileishmanial activity against Leishmania braziliensis MHOM/BR/91/H3227 intracellular amastigote assessed as parasite killing
- Type: toxicity, cell-based
- study-conditions: read-out: Ratio CC50/EC50
metric: selectivity ratio
// keep it numeric: no unit symbol after the value

input: I'd like to know its selectivity ratio. The compound in question is CC(C)[C@H]1OC(=O)[C@H](Cc2ccccc2)N(C)C(=O)[C@@H](C(C)C)OC(=O)[C@H](Cc2ccccc2)N(C)C(=O)[C@@H](C(C)C)OC(=O)[C@H](Cc2ccccc2)N(C)C1=O
output: 29.7

====

- Test system: Leishmania amazonensis
- experimental-protocol: Antileishmanial activity against Leishmania amazonensis IFLA/BR/67/PH8 promastigote assessed as parasite killing incubated for 24 hrs
- Assay type: functional, organism-based
- study-conditions: IFLA/BR/67/PH8, 24 h
metric: EC50 (nM)
Write down the numeric answer in nM and omit the unit.

input: Provide the documented EC50 with Leishmania amazonensis as the system for C[C@@H]1[C@H](O)[C@@H](C)/C=C/C=C/C=C/C=C/C=C/C=C/C=C/[C@H](O[C@@H]2O[C@H](C)[C@@H](O)[C@H](N)[C@@H]2O)C[C@@H]2O[C@](O)(C[C@@H](O)C[C@@H](O)[C@H](O)CC[C@@H](O)C[C@@H](O)CC(=O)O[C@H]1C)C[C@H](O)[C@H]2C(=O)O [AMPHOTERICIN B]
output: 200

input: Provide the documented EC50 with Leishmania amazonensis as the system for CC(C)[C@H]1OC(=O)[C@H](Cc2ccccc2)N(C)C(=O)[C@@H](C(C)C)OC(=O)[C@H](Cc2ccccc2)N(C)C(=O)[C@@H](C(C)C)OC(=O)[C@H](Cc2ccccc2)N(C)C1=O
output: 1200

====

Please respond with reported EC50 for every item in the list.
- Tested on: Trypanosoma cruzi
- experimental-protocol: Antitrypanosomal activity against Trypanosoma cruzi Y epimastigote assessed as parasite killing incubated for 24 hrs
- Format: functional, organism-based
Write down the numeric answer in nM and omit the unit.

input: I'd like to know its EC50. The compound in question is C[C@@H]1[C@H](O)[C@@H](C)/C=C/C=C/C=C/C=C/C=C/C=C/C=C/[C@H](O[C@@H]2O[C@H](C)[C@@H](O)[C@H](N)[C@@H]2O)C[C@@H]2O[C@](O)(C[C@@H](O)C[C@@H](O)[C@H](O)CC[C@@H](O)C[C@@H](O)CC(=O)O[C@H]1C)C[C@H](O)[C@H]2C(=O)O [AMPHOTERICIN B]
output: 2230

input: I'd like to know its EC50. The compound in question is CC(C)[C@H]1OC(=O)[C@H](Cc2ccccc2)N(C)C(=O)[C@@H](C(C)C)OC(=O)[C@H](Cc2ccccc2)N(C)C(=O)[C@@H](C(C)C)OC(=O)[C@H](Cc2ccccc2)N(C)C1=O
output: 3400

====

- experimental-protocol: Selectivity index, ratio of CC50 for cytotoxicity against mouse BMDM cells assessed as cell viability to EC50 for antileishmanial activity against Leishmania amazonensis IFLA/BR/67/PH8 intracellular amastigote
- Type: toxicity, cell-based
- study-conditions: read-out: Ratio CC50/EC50
metric: selectivity ratio
// keep it numeric: no unit symbol after the value

input: I'd like to know its selectivity ratio. The molecule in question is CC(C)[C@H]1OC(=O)[C@H](Cc2ccccc2)N(C)C(=O)[C@@H](C(C)C)OC(=O)[C@H](Cc2ccccc2)N(C)C(=O)[C@@H](C(C)C)OC(=O)[C@H](Cc2ccccc2)N(C)C1=O
output: 22.3
